TEST TARGET: UniProt:Q9BY41
Sequence (Q9BY41 whole entry): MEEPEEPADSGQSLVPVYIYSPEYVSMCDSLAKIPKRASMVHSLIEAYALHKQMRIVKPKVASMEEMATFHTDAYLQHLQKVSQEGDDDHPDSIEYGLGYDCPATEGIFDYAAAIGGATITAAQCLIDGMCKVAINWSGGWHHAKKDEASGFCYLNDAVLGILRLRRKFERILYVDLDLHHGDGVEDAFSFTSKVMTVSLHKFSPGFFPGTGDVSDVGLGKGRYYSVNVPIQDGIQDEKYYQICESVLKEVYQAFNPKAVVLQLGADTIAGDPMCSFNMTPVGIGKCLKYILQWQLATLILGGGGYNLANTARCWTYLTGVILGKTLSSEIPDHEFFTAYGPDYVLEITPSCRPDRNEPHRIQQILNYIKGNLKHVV
TEST PROTOCOL: HDAC8 inhibition assay (modified FLUOR DE LYS, 384-well)
Type: biochemical
CONDITION SET: […] enzyme, 200 μM substrate BML-KI178, 3 h pre-incubation; read-out: HDAC8 IC50
MEASURE NAME: IC50 (nM)

| COMPOUND | COMPARISON OPERATOR | VALUE OBSERVED |
| --- | --- | --- |
| CN1CCC2(CC1)C[C@@H]2C(=O)N[C@@H](CCCCCC(=O)c1ncco1)c1[nH]c(-c2ccc(F)cc2)nc1C#N | = | 170 |
| COc1cc2nc(C)ccc2cc1-c1cnc([C@H](CCCCCC(=O)c2ncco2)NC2CCOCC2)[nH]1 | = | 3500 |
| COc1nc2ccccc2cc1-c1cnc([C@H](CCCCCC(=O)c2ncco2)NC(=O)c2ccc(OC(F)F)nc2)[nH]1 | = | 96 |
| COc1cc2nc(C)ccc2cc1-c1cnc([C@H](CCCCCC(=O)c2cc(C)on2)NC(=O)CN(C)C)[nH]1 | = | 310 |
| CS(=O)(=O)c1ccc(-c2cnc([C@@H](N)CCCCCC(=O)c3ncco3)[nH]2)c(F)c1 | > | 900 |
| Cc1ccc2cc(-c3cnc([C@@H](N)CCCCCC(=O)c4ncco4)[nH]3)c(Cl)cc2n1 | = | 1500 |
| N[C@@H](CCCCCC(=O)c1ncco1)c1ncc(-c2ccc(C(F)(F)F)cc2F)[nH]1 | > | 900 |
| CCN1CCC2(CC1)C[C@@H]2C(=O)N[C@@H](CCCCCC(=O)c1ncco1)c1ncc(-c2cc(OC3CCC3)ccc2F)[nH]1 | = | 5.6 |
| CN1CCC(C(=O)N[C@@H](CCCCCC(=O)c2nccs2)c2nc(-c3ccc(F)cc3)c[nH]2)CC1 | = | 55 |
| CCn1cc(-c2ccc3nc(C)ccc3c2)nc1[C@@H](N)CCCCCC(=O)c1ncco1 | = | 21000 |
| COc1cc2nc(C)ccc2cc1-c1cnc([C@H](CCCCCC(=O)c2ncco2)NC(=O)C2CCCCO2)[nH]1 (stereo partly drawn) | = | 120 |
| COc1cc2c(ccc(=O)n2C)cc1-c1cnc([C@H](CCCCCC(=O)c2ccon2)NC(=O)C2CN(C)C2)[nH]1 | = | 3.1 |
| COc1cc2nc(C)ccc2cc1-c1cnc([C@H](CCCCCC(=O)c2ncco2)NC(=O)C2COCCO2)[nH]1 (stereo partly drawn) [Example 174] | = | 110 |
| COc1nc2ccccc2cc1-c1cnc([C@H](CCCCCC(=O)c2ncco2)NC(=O)CN2CCC2)[nH]1 | = | 31 |
| N[C@@H](CCCCCC(=O)c1ncco1)c1ncc(-c2cccc(C(F)(F)F)c2F)[nH]1 | = | 250 |

Numbers sourced from patent US12331044B2.
